# Tested on: SEM cells
# protocol details: cell viability relative to DMSO control; higher = less cytotoxic
# protocol conditions: HPLM + 10% dialyzed FBS; 48 h; 0.00702 µM

{"compound": "CCOc1cc2c(c(F)c1OCC)C(=N)N(CC(=O)c1cc(N3CCOCC3)c(OC)c(C(C)(C)C)c1)C2", "study system": "SEM cells", "cell viability, %": 95.7}
{"compound": "CCN1CCN(Cc2ccc(-c3cc4c(N[C@H](C)c5ccccc5)ncnc4[nH]3)cc2)CC1", "study system": "SEM cells", "cell viability, %": 125}
{"compound": "Cc1ccccc1C(C(=O)NC1CCCCC1)N(C(=O)CNc1ccc(C#N)cc1)c1cccc(F)c1 (configuration not stated)", "study system": "SEM cells", "cell viability, %": 119}
{"compound": "Cn1cc(-c2ccc3ncc(Cc4ccc5ncccc5c4)n3n2)cn1", "study system": "SEM cells", "cell viability, %": 103}
{"compound": "CO[C@@H]1[C@H](N(C)C(=O)c2ccccc2)C[C@H]2O[C@]1(C)n1c3ccccc3c3c4c(c5c6ccccc6n2c5c31)C(=O)NC4", "study system": "SEM cells", "cell viability, %": 119}
{"compound": "C[C@@H]1O[C@@H](O[C@H]\\2CC[C@]\\3(C)[C@@H]4CC[C@]5(C)[C@@H](CC[C@@]5(O)[C@H]4CCC3=C2)C/6=C/OC(=O)/C=C6)[C@H](O)[C@H](O)[C@@H]1O", "study system": "SEM cells", "cell viability, %": 109}
{"compound": "CC1OC(OC/2=C(/OC3=C(C(=CC(=C3)O)O)C2=O)C4=CC=C(O)C=C4)C(O)C(OC(C)=O)C1OC(C)=O (configuration not stated)", "study system": "SEM cells", "cell viability, %": 116}
